# Tested on: 786-0 renal
# measurement_notes: NCI-60 one-dose screen, 48 h (100 = growth as untreated, 0 = no growth, -100 = all killed)
# experimental_conditions: 10 µM unless noted
This is part of a sample that, as a whole, favours compounds with a hit. Of some 83,000 tested, about 20% had one in any assay.
# key: entry, value: growth
measured_endpoint: growth (%)

{"input_smiles": "CC(=O)Oc1ccc(N2C(=O)C(Cl)=C(Nc3cccc(C(F)(F)F)c3)C2=O)cc1", "measured_endpoint": "growth", "quantitative_result": 95.7}
{"input_smiles": "CNc1nnc2n(-c3ccccc3)c(=O)c3cnn(-c4ccccc4)c3n12", "measured_endpoint": "growth", "quantitative_result": 74.7}
{"input_smiles": "CCC1=C[C@@H]2C[C@]3(C(=O)OC)c4[nH]c5ccccc5c4CC[N@+](CC(=O)Nc4cc5c(cc4OC)N(C)[C@H]4[C@@](O)(C(=O)OC)[C@H](OC(C)=O)[C@]6(CC)C=CCN7CC[C@]54[C@@H]76)(C2)[C@H]13", "measured_endpoint": "growth", "quantitative_result": 99.1}
{"input_smiles": "Nc1nc2ccc(-c3nc4ccc5[nH]ncc5c4c4c3CCCC4)cc2s1", "measured_endpoint": "growth", "quantitative_result": 108}
{"input_smiles": "O=C(NCCCl)Nc1ncccc1OCc1ccccc1", "measured_endpoint": "growth", "quantitative_result": 100}
{"input_smiles": "CC(=O)/C(=C\\c1c(-c2ccccc2)[nH]c2ccccc12)S(C)(=O)=O", "measured_endpoint": "growth", "quantitative_result": 22.8}
{"input_smiles": "COC(=O)c1nc(-c2ccccc2)oc1S(=O)(=O)Cc1ccccc1", "measured_endpoint": "growth", "quantitative_result": 71.4}
{"input_smiles": "CC(C)=CC(=O)OCC(=O)O[C@@H]1C[C@]2(C(C)C)O[C@@]1(C)[C@@H]1CC[C@@H](C)[C@H]1[C@@H]2OC(=O)/C=C/c1ccccc1", "measured_endpoint": "growth", "quantitative_result": 66}

----------
# System: EKVX NSCLC
# measurement_notes: NCI-60 one-dose screen, 48 h
# experimental_conditions: 10 µM unless noted
This is part of a sample that, as a whole, favours compounds with a hit. Of some 83,000 tested, about 20% had one in any assay. Activity calls are given as the source filed them. How the source made its calls: active means growth percent below 10; inactive means the rest.
Outcome codes: yes (1) = active, no (0) = inactive

{"molecule": "COCCOc1cc2ncnc(N3CCN(c4ncc(S(=O)(=O)N5CCCCC5)cn4)CC3)c2cc1OCCOC", "group": "no (0)"}
{"molecule": "NC(=O)C(=O)c1ccccc1NC=O", "group": "no (0)"}
{"molecule": "O=C(/C=C/c1cccs1)Nc1ncc(Cc2ccccc2F)s1", "group": "no (0)"}
{"molecule": "CCCn1cc2c(=O)nc3sc(Cc4ccccc4)c(C)n3c2n1", "group": "no (0)"}
{"molecule": "Cc1cccc(/C=C/c2c(C(=O)/C=C/c3ccccc3)c(C)nc3ccccc23)c1", "group": "yes (1)"}
{"molecule": "Nc1ncnc2c1C(c1ccccc1)c1ccc3ccccc3c1O2 (stereo unspecified)", "group": "no (0)"}
{"molecule": "CCCCn1c(=O)[nH]c(N)c([C@@H]2c3c([nH]c(=O)n(CCCC)c3=O)Oc3ccc4ccccc4c32)c1=O", "group": "no (0)"}
{"molecule": "Nc1c(C(=O)Nc2ccccc2C(F)(F)F)sc2nc3c(cc12)CCC3", "group": "no (0)"}
{"molecule": "N#CC(C#N)N=Nc1ccc(Br)cc1", "group": "no (0)"}
{"molecule": "C=C(CBr)[C@@H]1CC[C@]2(C(=O)O)CC[C@]3(C)[C@H](CC[C@@H]4[C@@]5(C)CCC(=O)C(C)(C)[C@@H]5CC[C@]43C)[C@@H]12", "group": "no (0)"}
{"molecule": "O=CN1N=C(c2cccc(Nc3ccnc4cc(Cl)ccc34)c2)CC1c1ccccc1 (stereo unspecified)", "group": "no (0)"}
{"molecule": "COc1c(B(O)O)cccc1-c1cc(C)c2c(ccc3[nH]ncc32)n1", "group": "no (0)"}
{"molecule": "O=C1/C(=C/c2cn(-c3ccccc3)nc2-c2ccccc2)SC(=S)N1C1CCCCC1", "group": "no (0)"}
{"molecule": "O=C1NC2(Nc3ccccc31)C(=O)Nc1c(Cl)cc(Cl)cc12 (stereo unspecified)", "group": "no (0)"}
{"molecule": "CC(=O)c1c(C)nc(SCC(=O)Nc2cccc(O)c2)n1-c1ccc(Cl)cc1", "group": "no (0)"}
{"molecule": "O=C(Nc1cccc(-c2ccc(Cl)c(C(F)(F)F)c2)c1)C1CCN(Cc2cccc3cccnc23)CC1", "group": "no (0)"}
{"molecule": "CCOC(=O)c1c(NC(=O)c2ccc(Cl)cc2)sc2c(CN(C)C)c(O)ccc12", "group": "no (0)"}
{"molecule": "C#COc1cccc(Nc2c(C#N)cnc3ncc(NC(=O)CCl)cc23)c1", "group": "no (0)"}
{"molecule": "CCOc1nc(-c2ccccc2)cc2c(O)c(C(=O)N/N=C/c3ccccc3)[nH]c(=O)c12", "group": "no (0)"}
{"molecule": "COC(CC(F)F)c1cn(S(=O)(=O)c2ccc(C)cc2)c2ccccc12 (stereo unspecified)", "group": "no (0)"}
{"molecule": "C=CC[Se]C(=O)Cc1c(C)n(C(=O)c2ccc(Cl)cc2)c2ccc(OC)cc12", "group": "yes (1)"}

----------
# key: entry, value: growth
# Test system: T-47D breast
# measurement_notes: NCI-60 one-dose screen, 48 h (100 = growth as untreated, 0 = no growth, -100 = all killed)
# experimental_conditions: 10 µM unless noted
The panel holds about 83,000 compounds, 20% with a hit somewhere; the sample as a whole holds those more often.
measured_endpoint: growth (%)

{"compound": "CCCn1cc2c(=O)nc3sc(Cc4ccccc4)c(C)n3c2n1", "measured_endpoint": "growth", "quantitative_result": 84.8}
{"compound": "O=C1/C=C/[C@@H](O)[C@@H]2C[C@@H](O)C[C@H]2/C=C/CCC[C@H](CCc2ccccc2)O1", "measured_endpoint": "growth", "quantitative_result": 15.1}
{"compound": "CC(C)(C)[Si](C)(C)OC1[C@@H](CNC(=O)NC(=O)NC(N)=O)O[C@@H](n2cnc3c(NC(=O)Nc4ccccc4)ncnc32)[C@H]1O[Si](C)(C)C(C)(C)C (some centres undefined)", "measured_endpoint": "growth", "quantitative_result": 82.8}
{"compound": "CC(C)C1=NOC(=O)C1=Cc1cn(-c2ccccc2)nc1-c1ccc(F)cc1", "measured_endpoint": "growth", "quantitative_result": 76.9}

----------
# Tested on: SNB-19 CNS
# measurement_notes: NCI-60 one-dose screen, 48 h
# experimental_conditions: 10 µM unless noted
Compounds without any hit were thinned out: in the full panel of roughly 83,000, 20% have a hit. The source made the active and inactive calls. The calls were made as follows: active = growth percent below 10; inactive = the rest.
Outcome codes: active, inactive

{"molecule": "CSc1oc(C)nc1[P+](c1ccccc1)(c1ccccc1)c1ccccc1", "group": "inactive"}
{"molecule": "O=C(Nc1cccc2ccccc12)NC1CC1", "group": "inactive"}
{"molecule": "CC(C)(Sc1cc(C(C)(C)C)c(O)c(C(C)(C)C)c1)Sc1cc(C(C)(C)C)c(OC(=O)CCCC(=O)O)c(C(C)(C)C)c1", "group": "inactive"}
{"molecule": "Cn1cc(-c2csc(-c3cn(C(=O)OC(C)(C)C)c4ccc(Br)cc34)n2)c2ccnc(Cl)c21", "group": "inactive"}
{"molecule": "COc1ccc(NC2=C(I)C(=O)c3ncccc3C2=O)cc1", "group": "inactive"}
{"molecule": "CCCCCN1C(=O)/C(=c2\\sc3n(c2=O)C2C(NN=3)N(CC)C(=O)N2CC)c2ccccc21 (stereo not given)", "group": "active"}
{"molecule": "O=C1/C(=C/c2ccccc2O)CC/C1=C\\c1ccccc1O", "group": "inactive"}
{"molecule": "Cc1[nH]c(C(=O)Nc2ccc(C(=O)N3CCN(c4cc5c(cc4F)c(=O)c(C(=O)O)cn5C4CC4)CC3)cc2OC(C)C)c(Cl)c1Cl", "group": "inactive"}
{"molecule": "COc1ccc(/C=N/C2=C(C#N)C(c3ccccc3)c3ccc4ccccc4c3O2)cc1 (stereo not given)", "group": "inactive"}
{"molecule": "CC(C)c1ccc(C(=O)Nc2sc3c(c2C(N)=O)CCC(=O)C3)cc1", "group": "inactive"}

----------
# Test system: BT-549 breast
# measurement_notes: NCI-60 one-dose screen, 48 h (100 = growth as untreated, 0 = no growth, -100 = all killed)
# experimental_conditions: 10 µM unless noted
# Experimental: Growth inhibition of the BT-549 human tumor cell line is measured as a screen for anti-cancer activity. Cells are grown in 96 well plates and exposed to the test compound for 48 hours. Compounds are tested at a single concentration, which is 10^-5 M for most compounds. The reported endpoint is percent growth (GI% or GIPRCNT), where numbers from 0 - 100% represent growth inhibition, and numbers from -100% - 0 represent cell death. For example, a value of 40 represents 60% growth inhibition. […]
This is part of a sample that, as a whole, favours compounds with a hit. Of some 83,000 tested, about 20% had one in any assay.

{"compound": "CCOc1nc(-c2ccccc2)cc2c(O)c(C(=O)N/N=C/c3ccccc3)[nH]c(=O)c12", "growth (%)": 167}
{"compound": "CCCNC(=O)Nc1ccc2cc3ccc(NC(=O)NCCC)cc3nc2c1", "growth (%)": 82.1}
{"compound": "COc1ccc(C(=O)C/C(=C\\c2ccc(Cl)cc2)C(=O)NCc2ccccc2)cc1", "growth (%)": 110}
{"compound": "CCOC(=O)c1cc2c(n1Cc1cc(OC)c(OC)c(OC)c1)-c1nc(N)sc1CCC2", "growth (%)": 51.2}
{"compound": "C=CC(=O)N1CCN(c2cccc(Oc3nccc(Nc4nnc(-c5ccc(Br)cc5)s4)n3)c2)CC1", "growth (%)": 67.1}
{"compound": "COC(=O)[C@]1(C)CCC[C@]2(C)[C@H]3C[C@H]4C(C(C)C)=C[C@]3(CC[C@H]21)[C@@H]1C(=O)CC[C@H](OCCC#N)[C@@H]14", "growth (%)": 87.5}
{"compound": "N#CC1=C(c2ccccc2)Nc2c(c(-c3ccc(Cl)cc3)nn2-c2ccccc2)C12C(=O)Nc1ccc(Cl)cc12 (stereo not drawn)", "growth (%)": 76.2}
{"compound": "O=C1c2ccc3c4c5ccc(c24)C(=O)N1CCCOCCCCOCCCNCc1ccc(cc1)CNCCCOCCCCOCCCN(C3=O)C5=O", "growth (%)": 68.7}
{"compound": "O=C(CN1CCCCC1)Nc1nc(-c2cc3ccccc3oc2=O)cs1", "growth (%)": 100}
{"compound": "CCOC(=O)C1=C(c2ccccc2)N=C2SC=C(c3ccc(Cl)cc3)N2C1c1ccc(Cl)cc1 (stereo not drawn)", "growth (%)": 87.5}
{"compound": "Cn1cc(-c2csc(-c3c[nH]c4ccc(Br)cc34)n2)c2ccnc(Cl)c21", "growth (%)": 84.1}
{"compound": "CCOCCNC1=C(Cl)C(=O)c2ccccc2C1=O", "growth (%)": 107}
{"compound": "O=C(Nn1c2c(sc1=NC1CC1)C(=O)c1ccccc1C2=O)c1cc2ccc1CCc1ccc(cc1)CC2", "growth (%)": 37.2}
{"compound": "OB1OCc2cc(/C=C/c3cccc(C(F)(F)F)c3)ccc21", "growth (%)": 8.09}
{"compound": "C/C(Cc1ccc(Cl)cc1)=C(\\c1ccc(O)cc1)c1ccc(Cl)cc1", "growth (%)": 98.1}
{"compound": "COc1ccc(C2=Nc3c(N)nc(N)nc3NC(c3cccc(Nc4ccnc5cc(C(F)(F)F)ccc45)c3)C2)cc1 (stereo not drawn)", "growth (%)": 107}
{"compound": "C=C(C)[C@@H]1CC[C@]2(C(=O)N3CCOCC3)CC[C@]3(C)[C@H](CC[C@@H]4[C@@]5(C)C/C(=C/c6ccncc6)C(=O)C(C)(C)[C@@H]5CC[C@]43C)[C@@H]12", "growth (%)": 73.4}
{"compound": "COc1ccc(/C=C(\\C#N)n2nnc3ccc(Cl)cc32)cc1", "growth (%)": 68}
